test system: UACC-257 melanoma; experiment: NCI tumour cell line growth inhibition, 48 h
readout_kind: TGI

Known results for molecules:
# smiles_data, result
rows = [
    ("COCN1C(=O)[C@@H]2CCCN2C(=O)c2ccc([N+](=O)[O-])cc21", "> 100 µM"),
    ("O=C1COCCN1C(=O)c1ccccc1Cl", "> 100 µM"),
    ("CC1=CC(=O)/C(=C/n2c(=S)[nH]c3ccc([N+](=O)[O-])cc32)C(=O)O1", "> 100 µM"),
    ("COc1cc2c(cc1OC)C(=O)/C(=C/c1ccc([N+](=O)[O-])cc1)CC2", "> 10 µM"),
]

Proceeding to the next molecule to report its TGI.
Query (molecule): C[CH2][Sn]([CH2]C)([O]C(=O)c1ccc(F)cc1)[O][Sn]([CH2]C)([CH2]C)[O]C(=O)c1ccc(F)cc1 ; field requested: TGI
> 100 µM

====

Catalogue of TGI readings, one per entry.
test system: 786-0 renal; assay: NCI tumour cell line growth inhibition, 48 h

Look over these answered cases.
# molecule, TGI
data = [
    ("O=S(=O)(CCCCl)SCCCCl", "33.2 µM"),
    ("CCOC(=O)C(C(=O)OCC)=c1sc(=C(C(=O)OCC)C(=O)OCC)s1", "> 100 µM"),
    ("N#Cc1nn(-c2cc(=O)[nH]c3ccc(Br)cc23)c(N)c1C#N", "> 100 µM"),
]

Reported TGI for CC(C)NC(=O)OCc1c(COC(=O)NC(C)C)c(-c2ccc[n+](COC(=O)C(C)(C)C)c2)n2c1CCC2 : what is it?
> 100 µM

Any idea what TGI was measured for COc1ccc(C)cc1Nc1nnc(-c2ccc(N)cc2)s1 ?
> 100 µM

If you can, please state the reported TGI value of c1ccc2c3c(ccc2c1)-c1c(ccc2c(NCCCCN4CCCCC4)cccc12)C3 .
3.14 µM

I am curious: what TGI value has been reported for Cc1nnc2n1N=C(c1cc(F)c(Cl)cc1Cl)/C(=C/c1ccc3c(c1)OCO3)S2 ?
> 100 µM

What does the data say about its TGI? Entry: COc1ccc2nc(-c3cc4c([nH]c5ccccc54)c(-c4ccc(F)c(F)c4)n3)[nH]c2c1
24.9 µM

Name the reported TGI value associated with the molecule CCN(CC)CCCNc1ncc(C)c2c1c1ccc3c(O)cccc3c1n2C
2.19 µM

Give its TGI value. Item: Cc1ccc(S(=O)(=O)Nn2c(O)c(C#N)c(-c3ccc(N(C)C)cc3)c(C#N)c2=O)cc1
> 50 µM

# input molecule: O=C(O)c1ccccc1Nc1ccc2nnc(-c3ccncc3)n2n1 ; wanted: its TGI
19.7 µM

====

Entries and their TGI
test system: SK-MEL-28 melanoma; assay: NCI tumour cell line growth inhibition, 48 h

Solved cases (3 shown):
# molecule, result
rows = [
    ("COC(=O)[C@H](COC(=O)/C=C/c1ccc(OC(C)=O)c(OC(C)=O)c1)NC(=O)/C=C/c1ccc(OC(C)=O)c(OC(C)=O)c1", "94 µM"),
    ("Cc1nc2sc(C(=O)Nc3cccc(Br)c3)c(N)c2cc1C(O)c1ccccc1 (configuration not stated)", "23.7 µM"),
    ("O=C(O)CCSC(=S)Nc1ccc([N+](=O)[O-])cc1", "> 100 µM"),
]

--- query ---
# get_value(readout='TGI', item= NC(=O)OCc1c(-c2ccccc2)nn(-c2ccccc2)c1COC(N)=O )
> 100 µM

These data points were gathered from PubChem BioAssay (NCI).
